Values from ChEMBL document CHEMBL1131423

Reported solubility thermodynamic by item:
- Method Description: The solubility determined by equilibrating an excess of solid material in 500 microL of simulated gastric fluid
- Format: ADME
- Measurement Context: read-out: S
Quantity: solubility thermodynamic

Molecule	Recorded Measurement
Cc1sc(N2CCNCC2)nc1CCOc1ccc(C[C@H](Nc2ccccc2C(=O)c2ccccc2)C(=O)O)cc1	> 10000 µg/mL
Cc1oc(-c2ccccc2)nc1CCOc1ccc(C[C@H](Nc2ccccc2C(=O)c2ccccc2)C(=O)O)cc1 [FARGLITAZAR]	< 1 µg/mL
Cc1sc(N2CCN(C)CC2)nc1CCOc1ccc(C[C@H](Nc2ccccc2C(=O)c2ccccc2)C(=O)O)cc1	> 6000 µg/mL
Cn1cc(-c2ccccc2)nc1CCOc1ccc(C[C@H](Nc2ccccc2C(=O)c2ccccc2)C(=O)O)cc1	< 1 µg/mL

* * *

- System: Peroxisome proliferator-activated receptor alpha (Homo sapiens)
- Sequence (Q07869 whole entry): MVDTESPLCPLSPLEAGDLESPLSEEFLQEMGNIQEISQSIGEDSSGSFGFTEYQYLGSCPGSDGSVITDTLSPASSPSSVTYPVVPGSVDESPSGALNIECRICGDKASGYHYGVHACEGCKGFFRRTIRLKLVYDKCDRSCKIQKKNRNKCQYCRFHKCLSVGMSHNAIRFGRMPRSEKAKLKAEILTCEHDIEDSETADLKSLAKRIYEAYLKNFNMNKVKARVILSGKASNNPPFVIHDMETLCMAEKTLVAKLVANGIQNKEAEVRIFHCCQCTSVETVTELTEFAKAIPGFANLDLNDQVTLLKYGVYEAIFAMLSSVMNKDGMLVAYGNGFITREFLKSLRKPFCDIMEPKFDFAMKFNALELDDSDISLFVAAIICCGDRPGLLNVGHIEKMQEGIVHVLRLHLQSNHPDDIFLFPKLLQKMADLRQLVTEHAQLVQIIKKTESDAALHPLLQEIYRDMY
- Method Description: In vitro transactivation of Peroxisome proliferator activated receptor alpha.
pEC50: −log10 of the molar value.
Quantity: pEC50

Line Notation	Quantity	Recorded Measurement
Cc1cc(-c2ccccc2)nn1CCOc1ccc(C[C@H](Nc2ccccc2C(=O)c2ccccc2)C(=O)O)cc1	pEC50	6.18
Cc1sc(-c2ccccc2)nc1CCOc1ccc(C[C@H](Nc2ccccc2C(=O)c2ccccc2)C(=O)O)cc1	pEC50	5.98
Cc1ccsc1-c1nc(CCOc2ccc(C[C@H](Nc3ccccc3C(=O)c3ccccc3)C(=O)O)cc2)c(C)o1	pEC50	5.56
Cc1sc(N2CCOCC2)nc1CCOc1ccc(C[C@H](Nc2ccccc2C(=O)c2ccccc2)C(=O)O)cc1	pEC50	< 5.00
Cc1sc(-c2ccncc2)nc1CCOc1ccc(C[C@H](Nc2ccccc2C(=O)c2ccccc2)C(=O)O)cc1	pEC50	< 5.00
COCn1c(-c2ccccc2)nc(C)c1CCOc1ccc(C[C@H](Nc2ccccc2C(=O)c2ccccc2)C(=O)O)cc1	pEC50	< 5.00
Cc1sc(N2CCNCC2)nc1CCOc1ccc(C[C@H](Nc2ccccc2C(=O)c2ccccc2)C(=O)O)cc1	pEC50	< 5.00
Cc1sc(N(C)C)nc1CCOc1ccc(C[C@H](Nc2ccccc2C(=O)c2ccccc2)C(=O)O)cc1	pEC50	< 5.00
Cc1nc(-c2ccccc2)nn1CCOc1ccc(C[C@H](Nc2ccccc2C(=O)c2ccccc2)C(=O)O)cc1	pEC50	< 5.00
Cc1sc(NCCCN(C)C)nc1CCOc1ccc(C[C@H](Nc2ccccc2C(=O)c2ccccc2)C(=O)O)cc1	pEC50	< 5.00
Cc1[nH]c(-c2ccccc2)nc1CCOc1ccc(C[C@H](Nc2ccccc2C(=O)c2ccccc2)C(=O)O)cc1	pEC50	< 5.00

* * *

# solubility thermodynamic per entry
- Method Description: The solubility determined by equilibrating an excess of solid material in 500 microL of simulated gastric fluid
- Type: ADME
- Measurement Context: read-out: S

Line Notation	Unit Spec	Relation Qualifier	solubility thermodynamic
Cc1sc(N2CCOCC2)nc1CCOc1ccc(C[C@H](Nc2ccccc2C(=O)c2ccccc2)C(=O)O)cc1	µg/mL	=	4
COCCNc1nc(CCOc2ccc(C[C@H](Nc3ccccc3C(=O)c3ccccc3)C(=O)O)cc2)c(C)s1	µg/mL	=	210
Cc1oc(-c2ccncc2)nc1CCOc1ccc(C[C@H](Nc2ccccc2C(=O)c2ccccc2)C(=O)O)cc1	µg/mL	=	5
Cc1sc(-c2ccccc2)nc1CCOc1ccc(C[C@H](Nc2ccccc2C(=O)c2ccccc2)C(=O)O)cc1	µg/mL	<	1
Cc1nc(-c2ccccc2)nn1CCOc1ccc(C[C@H](Nc2ccccc2C(=O)c2ccccc2)C(=O)O)cc1	µg/mL	=	1

* * *

- Method Description: The solubility determined by equilibrating an excess of solid material in 500 microL of pH 7.4 phosphate buffer
- Assay type: ADME
- Measurement Context: read-out: S
Attribute: solubility thermodynamic
Quantity: solubility thermodynamic (µg/mL)

Line Notation	Quantity	Unit Spec	Recorded Measurement
Cc1sc(-c2ccccc2)nc1CCOc1ccc(C[C@H](Nc2ccccc2C(=O)c2ccccc2)C(=O)O)cc1	solubility thermodynamic	µg/mL	2
Cc1nc(-c2ccccc2)nn1CCOc1ccc(C[C@H](Nc2ccccc2C(=O)c2ccccc2)C(=O)O)cc1	solubility thermodynamic	µg/mL	4
Cc1sc(N2CCOCC2)nc1CCOc1ccc(C[C@H](Nc2ccccc2C(=O)c2ccccc2)C(=O)O)cc1	solubility thermodynamic	µg/mL	180
COCCNc1nc(CCOc2ccc(C[C@H](Nc3ccccc3C(=O)c3ccccc3)C(=O)O)cc2)c(C)s1	solubility thermodynamic	µg/mL	210
